test: in-vivo PK profile, rat PK; conditions: in vivo; Sprague-Dawley rat, PO 5 mg/kg
PROPERTY NAME: AUC(0-inf) (µg·h/mL)

{"SUBSTANCE SMILES": "CCN1CCN(c2ccc(Nc3cc(-n4c(Nc5c(Cl)c(OC)cc(OC)c5Cl)nc5ccccc54)ncn3)cc2)CC1", "PROPERTY NAME": "AUC(0-inf)", "EXPERIMENTAL RESULT": 0.652}

* * *

target: UniProt P10635; assay: inhibition activity against CYPs (cytochromes P450); assay type: in vitro ADME; settings: human; concentration 0.1 μM
Sequence (P10635 whole entry): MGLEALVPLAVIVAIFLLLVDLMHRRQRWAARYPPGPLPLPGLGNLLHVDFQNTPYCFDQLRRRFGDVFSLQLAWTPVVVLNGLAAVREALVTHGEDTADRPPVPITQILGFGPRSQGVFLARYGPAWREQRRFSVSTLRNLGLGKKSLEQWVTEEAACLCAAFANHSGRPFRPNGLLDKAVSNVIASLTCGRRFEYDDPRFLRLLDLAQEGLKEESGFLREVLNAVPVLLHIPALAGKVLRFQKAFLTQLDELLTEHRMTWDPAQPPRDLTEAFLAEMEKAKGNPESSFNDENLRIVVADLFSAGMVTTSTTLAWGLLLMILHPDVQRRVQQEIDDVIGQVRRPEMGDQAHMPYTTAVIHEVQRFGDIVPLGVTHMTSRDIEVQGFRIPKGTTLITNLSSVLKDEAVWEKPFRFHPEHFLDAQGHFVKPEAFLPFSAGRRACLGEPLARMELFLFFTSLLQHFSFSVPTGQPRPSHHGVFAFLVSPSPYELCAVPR

{"SUBSTANCE SMILES": "CCN1CCN(c2ccc(Nc3cc(-n4c(Nc5c(Cl)c(OC)cc(OC)c5Cl)nc5ccccc54)ncn3)cc2)CC1", "inhibition at 0.1 µM (%)": -3.15}

* * *

test: in-vivo PK profile, rat PK; conditions: in vivo; Sprague-Dawley rat, IV 5 mg/kg; read-out: Vz

{"COMPOUND": "CCN1CCN(c2ccc(Nc3cc(-n4c(Nc5c(Cl)c(OC)cc(OC)c5Cl)nc5ccccc54)ncn3)cc2)CC1 [Example 1]", "Vd": "48 L/kg"}

* * *

assay: in-vivo PK profile, rat PK; conditions: in vivo; Sprague-Dawley rat, PO 5 mg/kg

{"SUBSTANCE SMILES": "CCN1CCN(c2ccc(Nc3cc(-n4c(Nc5c(Cl)c(OC)cc(OC)c5Cl)nc5ccccc54)ncn3)cc2)CC1", "AUC(0-t), ng·h/mL": 129}

* * *

assay: in-vivo PK profile, mouse PK; details: mouse, in vivo; ICR mice, IV 5 mg/kg
PROPERTY NAME: AUC(0-t) (ng·h/mL)

{"SUBSTANCE SMILES": "CCN1CCN(c2ccc(Nc3cc(-n4c(Nc5c(Cl)c(OC)cc(OC)c5Cl)nc5ccccc54)ncn3)cc2)CC1", "EXPERIMENTAL RESULT": 322}

* * *

Experiment: microsomal stability
Assay type: in vitro ADME, Rat
Conditions: microsomes; Rat microsomal stability
Protocol: The microsomal stability of N-(2,6-dichloro-3,5-dimethoxyphenyl)-1-(6-((4-(4-ethylpiperazin-1-yl)phenyl)amino)pyrimidin-4-yl)-1H-benz[d]imidazol-2-amine synthesized in Example 1, as a representative compound of the present invention, was evaluated.
PROPERTY NAME: half-life (min)

{"SUBSTANCE SMILES": "CCN1CCN(c2ccc(Nc3cc(-n4c(Nc5c(Cl)c(OC)cc(OC)c5Cl)nc5ccccc54)ncn3)cc2)CC1", "PROPERTY NAME": "half-life", "MEASURE UNIT": "min", "EXPERIMENTAL RESULT": 39.6}

* * *

target: CYP3A4 (Homo sapiens, UniProt P08684); assay: inhibition activity against CYPs (cytochromes P450); type: in vitro ADME; conditions: human; concentration 25 μM
Sequence (P08684 whole entry): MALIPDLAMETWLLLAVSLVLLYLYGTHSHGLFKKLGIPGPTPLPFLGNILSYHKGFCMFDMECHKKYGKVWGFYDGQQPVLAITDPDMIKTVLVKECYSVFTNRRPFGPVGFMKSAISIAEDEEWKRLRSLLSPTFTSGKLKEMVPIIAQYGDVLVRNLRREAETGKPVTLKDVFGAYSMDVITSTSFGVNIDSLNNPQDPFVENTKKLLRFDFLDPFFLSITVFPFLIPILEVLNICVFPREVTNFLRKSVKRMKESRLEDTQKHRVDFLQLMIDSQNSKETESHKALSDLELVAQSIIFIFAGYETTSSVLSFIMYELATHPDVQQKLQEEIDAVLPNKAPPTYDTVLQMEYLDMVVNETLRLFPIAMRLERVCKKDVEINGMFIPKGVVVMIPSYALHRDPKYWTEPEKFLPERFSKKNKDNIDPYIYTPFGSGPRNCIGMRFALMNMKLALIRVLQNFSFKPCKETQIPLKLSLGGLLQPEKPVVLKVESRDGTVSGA

{"SUBSTANCE SMILES": "CCN1CCN(c2ccc(Nc3cc(-n4c(Nc5c(Cl)c(OC)cc(OC)c5Cl)nc5ccccc54)ncn3)cc2)CC1", "inhibition at 25 µM [%]": 49.7}

* * *

Target: CYP3A4 (Homo sapiens, UniProt P08684)
Assay: inhibition activity against CYPs (cytochromes P450)
Type: in vitro ADME
Conditions: concentration 10 μM
Protocol: The inhibition activity (inhibition rate, %) of N-(2,6-dichloro-3,5-dimethoxyphenyl)-1-(6-((4-(4-ethylpiperazin-1-yl)phenyl)amino)pyrimidin-4-yl)-1H-benz[d]imidazol-2-amine synthesized in Example 1, as a representative compound of the present invention, against CYPs (cytochromes P450) was measured in order to investigate the risk of drug side effects.
PROPERTY NAME: inhibition at 10 µM

{"SUBSTANCE SMILES": "CCN1CCN(c2ccc(Nc3cc(-n4c(Nc5c(Cl)c(OC)cc(OC)c5Cl)nc5ccccc54)ncn3)cc2)CC1", "TARGET OF ASSAY": "CYP3A4 (Homo sapiens, UniProt P08684)", "PROPERTY NAME": "inhibition at 10 µM", "EXPERIMENTAL RESULT": "31.8%"}
